- test_protocol: in vivo
- experimental_context: Sprague-Dawley, rat, iv, 1 mg/kg
measure_name: AUC(0-inf) (ng·h/mL)
One number for each entry, in ng·h/mL.

Entry COc1ccc(COc2ccc(Cn3cnc4cc(C#CC5CCNC5)cnc43)cc2OC)cn1 (stereo unspecified) , AUC(0-inf) reported as 542
